Taken from patent US20260232682A1.

system_tested: CRBN/DDB1 protein complex (Homo sapiens, UniProt Q96SW2)
Sequence (Q96SW2 whole entry, species assumed): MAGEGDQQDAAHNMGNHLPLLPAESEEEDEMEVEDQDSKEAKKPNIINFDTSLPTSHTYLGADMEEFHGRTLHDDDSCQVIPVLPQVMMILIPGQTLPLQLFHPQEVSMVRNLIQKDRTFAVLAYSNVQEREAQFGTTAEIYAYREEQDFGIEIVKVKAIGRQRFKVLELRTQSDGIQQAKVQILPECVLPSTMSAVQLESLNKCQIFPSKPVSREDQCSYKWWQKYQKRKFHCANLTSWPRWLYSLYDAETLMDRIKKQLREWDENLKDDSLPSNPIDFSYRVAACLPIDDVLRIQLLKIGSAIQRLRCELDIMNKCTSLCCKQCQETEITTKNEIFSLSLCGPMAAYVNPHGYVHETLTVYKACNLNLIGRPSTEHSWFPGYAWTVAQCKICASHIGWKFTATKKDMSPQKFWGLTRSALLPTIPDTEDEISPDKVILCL
Sequence (Q16531 whole entry partner, species assumed): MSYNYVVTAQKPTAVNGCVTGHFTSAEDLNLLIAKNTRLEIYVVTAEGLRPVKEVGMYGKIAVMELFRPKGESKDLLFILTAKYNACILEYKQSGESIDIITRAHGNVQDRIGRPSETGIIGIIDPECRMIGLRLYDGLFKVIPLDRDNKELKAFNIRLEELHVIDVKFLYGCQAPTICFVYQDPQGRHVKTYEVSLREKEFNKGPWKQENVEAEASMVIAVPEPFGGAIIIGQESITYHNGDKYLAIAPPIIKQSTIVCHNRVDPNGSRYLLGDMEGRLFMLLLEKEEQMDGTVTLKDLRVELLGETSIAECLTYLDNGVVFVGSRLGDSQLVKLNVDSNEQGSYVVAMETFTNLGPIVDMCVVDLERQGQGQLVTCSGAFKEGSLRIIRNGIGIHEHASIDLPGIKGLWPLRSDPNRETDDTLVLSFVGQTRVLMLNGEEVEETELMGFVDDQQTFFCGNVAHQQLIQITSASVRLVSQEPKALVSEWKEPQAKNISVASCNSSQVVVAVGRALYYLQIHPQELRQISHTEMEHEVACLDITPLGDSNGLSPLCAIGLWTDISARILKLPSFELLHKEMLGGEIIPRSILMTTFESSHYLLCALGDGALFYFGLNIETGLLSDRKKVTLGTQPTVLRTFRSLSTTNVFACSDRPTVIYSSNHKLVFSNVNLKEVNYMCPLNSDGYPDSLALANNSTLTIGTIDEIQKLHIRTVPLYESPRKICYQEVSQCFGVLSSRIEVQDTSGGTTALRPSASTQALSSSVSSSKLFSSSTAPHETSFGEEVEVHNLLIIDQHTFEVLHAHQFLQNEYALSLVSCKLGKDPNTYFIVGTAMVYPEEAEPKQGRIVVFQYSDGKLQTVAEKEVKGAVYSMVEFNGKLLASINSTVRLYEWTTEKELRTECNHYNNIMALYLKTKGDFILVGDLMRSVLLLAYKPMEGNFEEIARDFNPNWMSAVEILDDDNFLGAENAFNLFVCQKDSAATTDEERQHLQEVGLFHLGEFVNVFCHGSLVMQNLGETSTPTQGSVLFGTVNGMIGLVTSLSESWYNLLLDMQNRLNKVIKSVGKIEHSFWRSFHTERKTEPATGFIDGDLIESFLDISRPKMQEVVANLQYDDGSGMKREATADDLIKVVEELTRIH
assay_name: CRBN displacement TR-FRET assay
assay_conditions: Thalidomide-Red tracer, 6×His-CRBN/DDB1; read-out: CRBN binding Ki
pKi: −log10 of the molar value.
property_name: pKi

{"columns": ["compound", "endpoint_value"],
 "data": [
  ["Cc1nc2cc(COC(=O)Nc3ccc(N4CCOCC4)nc3)ccc2cc1C1CCC(=O)NC1=O (centres unmarked) [Compound 42]", "> 6.30"]
]}

// moving on: another record for pKi
Cc1nc2cc(COC(=O)Nc3ccc(Cl)c(Cl)c3)ccc2cc1C1CCC(=O)NC1=O (centres unmarked) [Compound 12] has a reported pKi of < 6.00

====

system_tested: [SALL4 ZF2]-[compound]-[CRBN/DDB1] ternary complex (Homo sapiens, UniProt Q96SW2+Q9UJQ4)
Construct: SALL4 ZF2
Sequence (Q9UJQ4 410-432 limits assumed): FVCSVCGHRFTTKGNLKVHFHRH
Sequence (Q96SW2 whole entry): as the sequence (Q96SW2 whole entry, species assumed) above
Sequence (Q16531 whole entry partner): as the sequence (Q16531 whole entry partner, species assumed) above
assay_name: AlphaLISA assay for off-target recruitment detection, SALL4 ZF2
Assay type: binding
assay_conditions: 1 μM compound; normalized to Lenalidomide; read-out: Normalized ternary complex response, SALL4 ZF2
property_name: activation at 1 µM

{"columns": ["molecule", "system_tested", "activation at 1 µM"],
 "data": [
  ["Cc1ccc(NC(=O)C(C)Oc2ccc3cc(C4CCC(=O)NC4=O)c(C)nc3c2)cc1Cl (stereo not shown)", "[SALL4 ZF2]-[compound]-[CRBN/DDB1] ternary complex (Homo sapiens, UniProt Q96SW2+Q9UJQ4)", "< 10%"],
  ["Cc1ccc(NC(=O)NCc2ccc3nc(C)c(N4CCC(=O)NC4=O)cc3c2)cc1Cl", "[SALL4 ZF2]-[compound]-[CRBN/DDB1] ternary complex (Homo sapiens, UniProt Q96SW2+Q9UJQ4)", "≥ 50%"],
  ["Cc1ccc(NC(=O)OCc2cc(F)c3cc(C4CCC(=O)NC4=O)c(C)nc3c2)cc1Cl (stereo not shown)", "[SALL4 ZF2]-[compound]-[CRBN/DDB1] ternary complex (Homo sapiens, UniProt Q96SW2+Q9UJQ4)", "< 10%"]
]}

// moving on: another record for activation at 1 µM
# activation at 1 µM measured on [SALL4 ZF2]-[compound]-[CRBN/DDB1] ternary complex (Homo sapiens, UniProt Q96SW2+Q9UJQ4) for item Cc1nc2cc(COC(=O)Nc3ccc4c(c3)OCO4)ccc2cc1C1CCC(=O)NC1=O (stereo not shown) = < 10%

====

Listed here are compounds together with their documented EC50.
system_tested: [GSPT1]-[compound of formula (I)]-[CRBN/DDB1] complex (Homo sapiens, UniProt P15170+Q96SW2)
Sequence (P15170 whole entry, one chain of several): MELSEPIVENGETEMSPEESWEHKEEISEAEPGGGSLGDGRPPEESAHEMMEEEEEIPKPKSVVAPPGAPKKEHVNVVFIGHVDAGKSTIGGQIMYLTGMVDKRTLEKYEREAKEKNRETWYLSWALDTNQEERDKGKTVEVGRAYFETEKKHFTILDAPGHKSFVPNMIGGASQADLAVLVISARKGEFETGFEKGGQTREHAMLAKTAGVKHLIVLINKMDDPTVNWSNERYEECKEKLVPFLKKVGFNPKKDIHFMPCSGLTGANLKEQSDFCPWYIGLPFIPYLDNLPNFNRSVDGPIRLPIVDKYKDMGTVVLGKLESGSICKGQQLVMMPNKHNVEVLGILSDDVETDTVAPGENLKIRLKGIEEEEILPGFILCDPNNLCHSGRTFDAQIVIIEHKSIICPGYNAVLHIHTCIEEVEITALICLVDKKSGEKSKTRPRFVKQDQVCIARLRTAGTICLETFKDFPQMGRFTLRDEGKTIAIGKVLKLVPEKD
assay_name: HTRF ternary complex assay (GSPT1)
Format: binding
assay_conditions: read-out: HTRF ternary complex Average pEC50 by molecule (converted)

Some solved cases for reference:
{"columns": ["compound", "property_name", "endpoint_value"],
 "data": [
  ["Cc1ccc(NC(=O)OCc2ccc3cc(C4(F)CCC(=O)NC4=O)c(C)nc3c2)cc1Cl (centres unmarked)", "EC50", "> 3.16 µM"],
  ["Cc1ccc(NC(=O)OCc2cc(F)c3cc(C4CCC(=O)NC4=O)c(C)nc3c2)cc1Cl (centres unmarked)", "EC50", "0.316 to 3.16 µM"],
  ["Cc1nc2cc(COC(=O)Nc3cccc(-c4ccccc4)c3)ccc2cc1C1CCC(=O)NC1=O (centres unmarked)", "EC50", "0.316 to 3.16 µM"],
  ["Cc1ccc(NC(=O)NCc2ccc3nc(C)c(N4CCC(=O)NC4=O)cc3c2)cc1Cl", "EC50", "< 0.316 µM"],
  ["Cc1ccc(NC(=O)OCc2ccc3cc(C4CCC(=O)NC4=O)c(C)nc3c2)c(Cl)c1Cl (centres unmarked)", "EC50", "0.316 to 3.16 µM"],
  ["Cc1nc2cc(OC(C)C(=O)NC3CCCCC3)ccc2cc1C1CCC(=O)NC1=O (centres unmarked)", "EC50", "> 3.16 µM"]
]}

Cc1nc2cc(COC(=O)Nc3nc(C(C)(C)C)no3)ccc2cc1C1CCC(=O)NC1=O (centres unmarked) has a reported EC50 of 0.316 to 3.16 µM

Cc1ccc(NC(=S)NCc2ccc3cc(C4CCC(=O)NC4=O)c(C)nc3c2)cc1Cl (centres unmarked) has a reported EC50 of > 3.16 µM
